Source: patent US20240316038A1

tgt: APOL1 G2 (Homo sapiens, UniProt O14791, DEL388-389)
Sequence (O14791 with tags, fused parts or gaps DEL388-389): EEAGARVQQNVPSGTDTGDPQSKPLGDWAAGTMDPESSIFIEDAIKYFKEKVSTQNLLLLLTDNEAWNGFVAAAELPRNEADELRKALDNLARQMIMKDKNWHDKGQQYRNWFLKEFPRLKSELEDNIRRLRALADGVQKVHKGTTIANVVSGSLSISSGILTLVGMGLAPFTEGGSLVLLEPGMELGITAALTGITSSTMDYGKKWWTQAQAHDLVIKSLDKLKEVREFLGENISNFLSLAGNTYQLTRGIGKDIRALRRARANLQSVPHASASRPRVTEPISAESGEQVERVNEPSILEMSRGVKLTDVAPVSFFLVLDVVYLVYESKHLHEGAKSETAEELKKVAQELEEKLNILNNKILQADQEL
measurement description: Rescue of HEK293 cell death caused by overexpression of APOL1 (CellTiter-Glo luminescence), HEK293/T-REx APOL1 G2/clone #2
condition parameters: reversal of cell death caused by overexpression of APOL1; geometric mean of at least 2 assay runs, † = single assay run (technical duplicate)
Procedure: A HEK293 clonal cell line overexpressing APOL1 G2 (HEK293/T-REx APOL1 G2/clone #2) was maintained in 1×DMEM-GlutaMax (Gibco, 10569-010) media with 10% tetracycline-free FBS (Takara Bio USA, 631101), 5 μg/mL Blasticidin (Gibco, A1113903), and 100 μg/mL Zeocin (Invitrogen, R25001) in T75 flasks. […] The suspension was gently mixed, and cells were counted using a Countess Cell Counting Chamber (Invitrogen). […] Luminescence was measured on an Envision plate reader. […]
pEC50: −log10 of the molar value.
parameter measured: pEC50

In [3]: df
Out[3]:
                                    compound                                       tgt  limit_qualifier  recorded_measurement
 0  CS(=O)(=O)c1ccc(OC[C@@H]2CCCN(CC(O)c3cccc(Cl)c3)C2)cc1 (stereo partly drawn) [Compound 20]  APOL1 G2 (Homo sapiens, UniProt O14791, DEL388-389)                =                  5.87
 1  CS(=O)(=O)c1ccc(OCC2CN(CCc3cccc(Cl)c3)CCC2O)cc1 (racemic) [Compound 27]  APOL1 G2 (Homo sapiens, UniProt O14791, DEL388-389)                =                  5.67
 2  C[C@@H]1CN(CC(O)c2cc(C#N)cc(C#N)c2)C[C@H]1COc1ccc(S(C)(=O)=O)cc1 (stereo partly drawn) [Compound 129]  APOL1 G2 (Homo sapiens, UniProt O14791, DEL388-389)                =                  6.14
 3  Cc1ccc(Cl)cc1CCN1CCN[C@H](COc2ccc(S(C)(=O)=O)cc2)C1  APOL1 G2 (Homo sapiens, UniProt O14791, DEL388-389)                =                  6.43
 4  CS(=O)(=O)c1ccc(CCC2CCCN(CCc3cccc(Cl)c3)C2)cc1 (stereo not drawn) [Compound 39]  APOL1 G2 (Homo sapiens, UniProt O14791, DEL388-389)                =                  6.04
 5  CS(=O)(=O)c1ccc(OC[C@H](O)CNC(Cc2cccc(Cl)c2)C2CC2)cc1 (stereo partly drawn)  APOL1 G2 (Homo sapiens, UniProt O14791, DEL388-389)                <                  4.66
 6  C[C@@H]1CN(CCc2cc(C#N)cc(C#N)c2)C[C@H]1COc1ccc(S(C)(=O)=O)cc1  APOL1 G2 (Homo sapiens, UniProt O14791, DEL388-389)                =                  6.61
 7  C[C@@H]1C[C@H](COc2ccc(S(=O)(=O)C3CNC3)cc2)CN1CCc1cccc(C#N)c1  APOL1 G2 (Homo sapiens, UniProt O14791, DEL388-389)                =                  6.75
 8  C[C@H]1CN(CCc2cccc(Cl)c2)C[C@@H]1COc1ccc(S(=O)(=O)CCCS(C)(=O)=O)cc1 (single isomer, unassigned) [Compound 176]  APOL1 G2 (Homo sapiens, UniProt O14791, DEL388-389)                >                  7.33
 9  CS(=O)(=O)c1ccc(OCC2CN(CCc3cccc(Cl)c3)CCC2O)cc1 (single isomer, unassigned) [Compound 29]  APOL1 G2 (Homo sapiens, UniProt O14791, DEL388-389)                <                  4.91
10  Cc1c(C#N)cc(Cl)cc1CCN1C[C@@H](COc2ccc(S(C)(=O)=O)cc2)[C@H](C)C1  APOL1 G2 (Homo sapiens, UniProt O14791, DEL388-389)                =                  6.59
11  COCCS(=O)(=O)c1ccc(OC[C@H]2CN(CCc3cccc(Cl)c3)C[C@@H]2C)cc1 (racemic) [Compound 109]  APOL1 G2 (Homo sapiens, UniProt O14791, DEL388-389)                =                  6.30
12  CC1CC(COc2ccc(S(C)(=O)=O)cc2)CN1CCc1cccc(C#N)c1 (single isomer, unassigned) [Compound 140]  APOL1 G2 (Homo sapiens, UniProt O14791, DEL388-389)                =                  7.34
13  CC(C)(Cc1cccc(Cl)c1)NC[C@@H](O)COc1ccc(S(C)(=O)=O)cc1  APOL1 G2 (Homo sapiens, UniProt O14791, DEL388-389)                =                  6.34
14  CC1CNC(COc2ccc(S(C)(=O)=O)cc2)CN1CCc1cccc(Cl)c1 (stereo not drawn) [Compound 211]  APOL1 G2 (Homo sapiens, UniProt O14791, DEL388-389)                =                  5.87

----------
tgt: APOL1 G2 (Homo sapiens, UniProt O14791, DEL388-389)
measurement description: Rescue of HEK293 cell death caused by overexpression of APOL1 (CellTiter-Glo luminescence), HEK293/T-REx APOL1 G2/clone #2
condition parameters: reversal of cell death caused by overexpression of APOL1; geometric mean of at least 2 assay runs, † = single assay run (technical duplicate)
parameter measured: EC50 (µM)

                                   molecule  limit_qualifier  recorded_measurement
0  CN(c1ccc(OC[C@@H](O)CN2CCOC(c3cccc(Cl)c3)C2)cc1)S(C)(=O)=O (stereo partly shown) [Compound 80]                =                    13
1  CN(c1ccc(OC[C@H](O)CNC2(Cc3cccc(Cl)c3)CCOC2)cc1)S(C)(=O)=O (stereo partly shown) [Compound 92]                >                  9.79
2  CC1CNC(COc2ccc(S(C)(=O)=O)cc2)CN1CCc1cccc(Cl)c1 (single isomer, unassigned) [Compound 212]                >                  14.3
3  CC1CC(COc2ccc(S(C)(=O)=O)cc2)CN1CCc1cccc(Cl)c1 (single isomer, unassigned) [Compound 54]                >                    30
4  CC1CC(COc2ccc(S(C)(=O)=O)cc2)CN1CCc1cccc(Cl)c1 (single isomer, unassigned) [Compound 55]                =                  1.68
5  CS(=O)(=O)c1ccc(OC[C@@H](O)CNCCc2cccc(Cl)c2)cc1 [Compound 93]                >                    30
6  CS(=O)(=O)c1ccc(OC[C@H]2CCCN(CC(O)c3cccc(Cl)c3)C2)cc1 (single isomer, unassigned) [Compound 18]                =                  6.32

----------
tgt: APOL1 G2 (Homo sapiens, UniProt O14791, DEL388-389)
Construct: expressed in transfected cells; host or cells: HEK293 T-REx clonal lines: HEK T-REx/GCaMP6f/APOL1 G2 K6.3 in A1, HEK293/T-REx APOL1 G2/clone #2 in A2
measurement description: APOL1 calcium transport inhibition assay (GCaMP6f calcium influx, FLIPR) in HEK T-REx/GCaMP6f/APOL1 G2 K6.3 cells
Format: cell-based
condition parameters: inhibition of APOL1-mediated calcium influx; geometric mean of at least 2 assay runs, † = single assay run (technical duplicate)
So basically, if AC50 comes in under 500 nM it's TRUE, and if it's 500 nM or more it's FALSE.

>>> print(df.to_string())
                                    compound  group
 0  C[C@@H]1CN(CCc2cc(C#N)cc(C#N)c2)C[C@H]1COc1ccc(S(C)(=O)=O)cc1   TRUE
 1  COC1CCN(CCc2cccc(Cl)c2)CC1COc1ccc(S(C)(=O)=O)cc1 (single isomer, unassigned) [Compound 33]  FALSE
 2  C[C@@]1(O)CN(CCc2cccc(Cl)c2)C[C@@H]1COc1ccc(S(C)(=O)=O)cc1 (single isomer, unassigned)  FALSE
 3  CS(=O)(=O)c1ccc(OCC2CN(CCc3cccc(Cl)c3)CCC2O)cc1 (single isomer, unassigned) [Compound 30]  FALSE
 4  C[C@@H]1CC[C@H](COc2ccc(S(C)(=O)=O)cc2)CN1CCc1cccc(Cl)c1   TRUE
 5  C[C@H](CNCCc1cccc(Cl)c1)COc1ccc(N(C)S(C)(=O)=O)cc1   TRUE
 6  CC1CNC(COc2ccc(S(C)(=O)=O)cc2)CN1CCc1cccc(Cl)c1 (single isomer, unassigned) [Compound 213]  FALSE
 7  C[C@]1(O)CN(CCc2cccc(Cl)c2)C[C@H]1COc1ccc(S(C)(=O)=O)cc1 (single isomer, unassigned)  FALSE
 8  C[C@@H]1C[C@H](COc2ccc(S(C)(=O)=O)cc2)CN1CC(O)c1cccc(Cl)c1 (single isomer, unassigned) [Compound 214]   TRUE
 9  COC1CCN(CCc2cccc(Cl)c2)CC1COc1ccc(S(C)(=O)=O)cc1 (single isomer, unassigned) [Compound 35]  FALSE
10  CS(=O)(=O)c1ccc(OC[C@@H]2CN(CCc3cc(Cl)cc(C#N)c3)CCN2)cc1  FALSE
11  CS(=O)(=O)c1ccc(OC[C@H]2CCCN(CC(O)c3cccc(Cl)c3)C2)cc1 (stereo partly shown) [Compound 17]  FALSE
12  CS(=O)(=O)c1ccc(OC[C@@H]2CN(CCc3cc(Cl)cc(Cl)c3)CCN2)cc1   TRUE
13  CN(c1ccc(OC[C@@H](O)CN2CCC(c3cccc(Cl)c3)C2)cc1)S(C)(=O)=O (single isomer, unassigned) [Compound 75]  FALSE
14  CC1CC(COc2ccc(S(C)(=O)=O)cc2)CN1CCc1cccc(C#N)c1 (single isomer, unassigned) [Compound 136]   TRUE
15  CS(=O)(=O)c1ccc(CCC2CCCN(CCc3cccc(Cl)c3)C2)cc1 (stereo not shown) [Compound 39]   TRUE
16  CC1CC(COc2ccc(S(C)(=O)=O)cc2)CN1CCc1cc(Cl)cc(C#N)c1 (single isomer, unassigned) [Compound 200]  FALSE
17  CN(c1ccc(NCC(O)CNCCc2cccc(Cl)c2)cc1)S(C)(=O)=O (single isomer, unassigned) [Compound 106]  FALSE
18  CS(=O)(=O)c1ccc(OC[C@H]2CCCN(CC(O)c3cccc(Cl)c3)C2)cc1 (single isomer, unassigned) [Compound 19]   TRUE
19  C[C@@H]1CN(CC(O)c2cc(C#N)cc(C#N)c2)C[C@H]1COc1ccc(S(C)(=O)=O)cc1 (single isomer, unassigned) [Compound 130]  FALSE
20  CS(=O)(=O)c1ccc(OCC2CN(CCc3cccc(Cl)c3)CCC2O)cc1 (single isomer, unassigned) [Compound 29]  FALSE
21  CN=S(C)(=O)c1ccc(OC[C@H]2C[C@@H](C)N(CCc3cccc(C#N)c3)C2)cc1 (single isomer, unassigned) [Compound 159]   TRUE
22  CC1CC(COc2ccc(S(C)(=O)=O)cc2)CN1CCc1cccc(Cl)c1 (single isomer, unassigned) [Compound 56]  FALSE
23  CS(=O)(=O)c1ccc(OC[C@@H](O)CNCCc2cccc(Cl)c2)cc1  FALSE
24  CN(c1ccc(OC[C@H](O)CN2CCC(c3cccc(Cl)c3)C2)cc1)S(C)(=O)=O (stereo partly shown) [Compound 77]  FALSE
25  CC1CC(COc2ccc(S(C)(=O)=O)cc2)CN1CCc1cc(Cl)cc(C#N)c1 (single isomer, unassigned) [Compound 204]   TRUE
